Provide the reported SPOT intensity of each item.
# assayed-target: T1, Bzz1-2, P38822
# T1 sequence (P38822 568-633, looked up): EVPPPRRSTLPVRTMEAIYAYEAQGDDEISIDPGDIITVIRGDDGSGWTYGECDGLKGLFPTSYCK
# procedure-summary: SPOT array
# condition-context: median of control spots 4538
One number for each entry.

binder: VTHRLRISIPGITGR
value-observed: 0

binder: NTMKKRPAPPSLPSL
value-observed: 1440

binder: KFIPSRPAPKPPSSA
value-observed: 10

binder: FSRRQSMDIPSKNRN
value-observed: 26

Provide each entry's SPOT intensity from the list below.
1. RKQRSIPLSPIVPES
2. KRRTSLFPWLHKPGI

5
3

Provide each entry's SPOT intensity from the list below.
1. AHFQPQRTAPKPPIS
2. RTIRKLPLMSLSEYF
3. QTMRQAPKRPDADVA

[0, 0, 28]

Provide each entry's SPOT intensity from the list below.
1. AERNYAPRLPRRETS
2. RSRRSSFAYPQQVAI
3. FYHRPAPKPPVTKKV

1: 1; 2: 1; 3: 186

Provide each entry's SPOT intensity from the list below.
1. NRLRKRLNLPSEISI
2. TSIEIPKRSPLRFTS

1. 13
2. 0

Lab note: VRVKKRPLIRPLNSS gave SPOT intensity of 11
